# testedSystem: T1, ECF14_1324
# T1 chain: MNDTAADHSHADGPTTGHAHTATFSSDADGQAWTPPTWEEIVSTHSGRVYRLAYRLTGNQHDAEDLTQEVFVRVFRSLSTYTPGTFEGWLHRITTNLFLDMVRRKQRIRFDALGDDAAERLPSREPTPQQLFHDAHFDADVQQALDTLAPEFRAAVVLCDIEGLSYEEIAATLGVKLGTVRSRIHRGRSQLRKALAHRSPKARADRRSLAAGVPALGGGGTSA
valueKind: fold repression
Output: the number by itself.

Example binders with recorded fold repression:
INSERT INTO results (binder, valuekind, observedresult) VALUES
  ('AS25_1645 (protein) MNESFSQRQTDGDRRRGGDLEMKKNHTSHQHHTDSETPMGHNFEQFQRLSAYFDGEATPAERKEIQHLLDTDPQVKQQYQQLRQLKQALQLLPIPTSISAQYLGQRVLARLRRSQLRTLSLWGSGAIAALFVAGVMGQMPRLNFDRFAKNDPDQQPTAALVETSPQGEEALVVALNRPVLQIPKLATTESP', 'fold repression', 18.7),
  ('AS16_973 (protein) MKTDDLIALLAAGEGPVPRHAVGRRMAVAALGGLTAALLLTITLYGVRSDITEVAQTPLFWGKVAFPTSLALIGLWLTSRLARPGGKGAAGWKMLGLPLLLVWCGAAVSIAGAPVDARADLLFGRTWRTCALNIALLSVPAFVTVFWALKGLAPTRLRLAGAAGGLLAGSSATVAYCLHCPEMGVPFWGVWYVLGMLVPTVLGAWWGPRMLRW', 'fold repression', 0.887),
  ('AS22_1147 (protein) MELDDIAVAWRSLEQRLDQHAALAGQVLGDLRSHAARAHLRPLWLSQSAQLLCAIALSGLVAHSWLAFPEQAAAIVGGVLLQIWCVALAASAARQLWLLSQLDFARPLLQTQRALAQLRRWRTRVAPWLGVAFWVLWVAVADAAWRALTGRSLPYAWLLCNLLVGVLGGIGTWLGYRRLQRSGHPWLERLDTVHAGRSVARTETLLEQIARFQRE', 'fold repression', 4.18);

Please report the recorded fold repression for AS02_915 (protein) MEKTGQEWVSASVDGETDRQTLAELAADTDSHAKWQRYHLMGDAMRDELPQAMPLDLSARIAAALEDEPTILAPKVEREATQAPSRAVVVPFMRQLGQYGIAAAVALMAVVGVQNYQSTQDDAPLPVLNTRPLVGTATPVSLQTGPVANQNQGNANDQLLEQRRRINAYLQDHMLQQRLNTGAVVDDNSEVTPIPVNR .
4.42

What do we get for AS33_423 (protein) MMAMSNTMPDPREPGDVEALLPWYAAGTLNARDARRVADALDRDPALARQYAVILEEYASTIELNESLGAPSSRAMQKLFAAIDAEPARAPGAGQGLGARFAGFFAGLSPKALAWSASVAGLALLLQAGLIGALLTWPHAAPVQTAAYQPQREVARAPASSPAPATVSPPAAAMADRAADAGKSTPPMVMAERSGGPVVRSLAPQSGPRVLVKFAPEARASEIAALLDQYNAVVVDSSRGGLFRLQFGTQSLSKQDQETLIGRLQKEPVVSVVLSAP ?
36

Reference source: paper PMC3817407
